# pKd per record follows
biological target: T1, human MSLN-His-Avi (human, UniProt Q13421 296-598, single biotin (BirA) in the biotinylated form); assay: SPR (Biacore), MSLN immobilised, mAb^2 injected
T1 construct: Monomeric, made in HEK293-6E; Used both immobilised and in solution; also called hMSLN-His-Avi; biotinylated hMSLN-His-Avi
T1 sequence (Q13421 other isoform, or with tags, fused parts or gaps): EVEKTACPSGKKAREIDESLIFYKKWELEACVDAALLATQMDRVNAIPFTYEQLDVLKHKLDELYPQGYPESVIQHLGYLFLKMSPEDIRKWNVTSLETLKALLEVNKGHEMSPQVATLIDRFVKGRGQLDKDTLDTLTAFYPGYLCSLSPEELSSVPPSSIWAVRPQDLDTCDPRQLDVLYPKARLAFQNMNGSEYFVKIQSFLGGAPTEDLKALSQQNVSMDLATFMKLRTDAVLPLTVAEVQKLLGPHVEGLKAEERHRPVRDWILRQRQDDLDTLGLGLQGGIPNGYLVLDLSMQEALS
Keep in mind that pKd stands for -log10 of concentration in molar terms.

BINDER	NUMERIC RESULT
FS22-053-008-AA/FS28-256-023 mAb^2 (bispecific antibody, human IgG1, kappa, L234A L235A, V domains shown) VH: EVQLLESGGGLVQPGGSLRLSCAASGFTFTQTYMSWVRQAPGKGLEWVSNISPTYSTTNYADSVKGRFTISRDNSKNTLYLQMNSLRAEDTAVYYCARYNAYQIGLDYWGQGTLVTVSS VL: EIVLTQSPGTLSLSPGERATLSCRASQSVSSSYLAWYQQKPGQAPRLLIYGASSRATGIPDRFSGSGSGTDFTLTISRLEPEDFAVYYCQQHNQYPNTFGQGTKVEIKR	8.48

input: Provide measured pKd value, entry: FS22-053-008-AA/FS28-185 (bispecific antibody, human IgG1, kappa, L234A L235A, V domains shown) VH: EVQLLESGGGLVQPGGSLRLSCAASGFTFTTSAMSWVRQAPGKGLEWVSRINPYEGETNYADSVKGRFTISRDNSKNTLYLQMNSLRAEDTAVYYCARGWSIATYYKSAMDYWGQGTLVTVSS VL: EIVLTQSPGTLSLSPGERATLSCRASQSVSSSYLAWYQQKPGQAPRLLIYGASSRATGIPDRFSGSGSGTDFTLTISRLEPEDFAVYYCQQSSYSAPVTFGQGTKVEIKR
output: 7.52

input: Provide measured pKd value, entry: FS22-053-008-AA/FS28-256-026 mAb^2 (bispecific antibody, human IgG1, kappa, L234A L235A, V domains shown) VH: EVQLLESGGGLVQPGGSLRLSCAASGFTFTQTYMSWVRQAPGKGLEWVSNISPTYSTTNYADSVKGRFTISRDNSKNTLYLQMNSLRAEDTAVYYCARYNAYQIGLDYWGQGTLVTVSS VL: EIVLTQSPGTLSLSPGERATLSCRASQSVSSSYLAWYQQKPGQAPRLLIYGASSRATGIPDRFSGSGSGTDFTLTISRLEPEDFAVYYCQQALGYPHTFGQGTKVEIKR
output: 8.49

input: Provide measured pKd value, entry: FS22-053-008-AA/FS28-024-051 mAb^2 (bispecific antibody, human IgG1, kappa, L234A L235A, V domains shown, also called FS28-024-51) VH: EVQLLESGGGLVQPGGSLRLSCAASGFTLSYSSMSWVRQAPGKGLEWVSFITPSTGYTHYADSVKGRFTISRDNSKNTLYLQMNSLRAEDTAVYYCARRALIFDYWGQGTLVTVSS VL: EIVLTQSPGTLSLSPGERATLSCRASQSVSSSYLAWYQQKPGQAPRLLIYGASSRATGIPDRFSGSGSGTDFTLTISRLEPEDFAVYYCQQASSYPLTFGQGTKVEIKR
output: 9.51
